Every entry's value here was drawn from the supplement of paper PMC13380429.

System: Vero E6 infected with SARS-CoV-2
Test: SARS-CoV-2 infection rate relative to infected DMSO; higher = more infection, active = 60 or less
Conditions: 24 h
Outcomes: true (active), false (inactive)

# COMPOUND, CLASS ASSIGNMENT
records = [
    ("CN(C)CCC(c1ccccc1)c1ccccn1 (configuration not stated) [pheniramine] (10 µM)", "false"),
    ("COC(=O)[C@H](Cc1cccc(C(=N)N)c1)[C@@H](C)NC(=O)c1ccc(-c2cc[n+]([O-])cc2)cc1 [otamixaban] (10 µM)", "false"),
    ("O=C(Nc1ccc(C(O)(C(F)(F)F)C(F)(F)F)cc1)c1ccc(C(F)(F)F)cc1 (10 µM)", "false"),
    ("Cc1cc(-c2nc(C(=O)Nc3cn(C4CCOCC4)nc3C(N)=O)co2)ccn1 (10 µM)", "false"),
    ("COc1ccc(C(=O)Nc2c(Cl)cncc2Cl)cc1OC1CCCC1 [piclamilast] (10 µM)", "false"),
    ("COc1ccc(-c2cc3nccn3c(Nc3ncccc3C(N)=O)n2)cc1OC (0.833333 µM)", "true"),
    ("OC[C@H]1NCC[C@@H](O)[C@@H]1O [fagomine] (10 µM)", "false"),
    ("O[C@H]([C@H](O)[C@@H]1CO1)[C@H]1CO1 [dianhydrogalactitol] (10 µM)", "false"),
    ("COc1cc(C)c(/C=C/C(C)=C/C=C/C(C)=C/C(=O)O)c(C)c1C [acitretin] (10 µM)", "false"),
    ("CC(C)(C)c1cc(C(=O)/C(C#N)=N/Nc2cccc(Cl)c2)no1 (10 µM)", "false"),
    ("O=C(OC(C(F)(F)F)C(F)(F)F)N1CCC(C(O)(c2ccc3c(c2)OCO3)c2ccc3c(c2)OCO3)CC1 (10 µM)", "false"),
    ("O=C(O)CCC/C=C\\C[C@@H]1[C@@H](/C=C/[C@@H](O)COc2cccc(Cl)c2)[C@H](O)C[C@@H]1O (racemic) [cloprostenol-(+/-)] (10 µM)", "false"),
    ("Cc1[nH]c2ccccc2c1CCNC(=O)c1cccs1 (10 µM)", "false"),
    ("CC(C[N+](C)(C)C)OC(N)=O (configuration not stated) [bethanechol] (10 µM)", "false"),
    ("COC(=O)/C=C/c1cccc(N(Cc2ccc(-c3ccc(N(C)C)cc3)cc2)C(=O)C2CCCCC2)c1 [fexaramine] (10 µM)", "false"),
    ("COc1cc(OC)c(/C=C/S(=O)(=O)Cc2ccc(OC)c(OP(=O)(O)O)c2)c(OC)c1 [briciclib] (0.833333 µM)", "false"),
    ("CC(C)NCC(O)c1ccccc1Cl (configuration not stated) [clorprenaline] (10 µM)", "false"),
    ("O=C1[C@@H]2[C@H]3CC[C@H](C3)[C@@H]2C(=O)N1C[C@@H]1CCCC[C@H]1CN1CCN(c2nsc3ccccc23)CC1 [lurasidone] (10 µM)", "false"),
    ("N=C(NCc1ccc(Cl)cc1)SCCCc1c[nH]cn1 [clobenpropit] (10 µM)", "false"),
    ("CC(C)(O)[C@@H]1[C@H]2OC(=O)[C@@H]1[C@]1(O)C[C@H]3O[C@]34C(=O)O[C@H]2[C@]14C [picrotin] (10 µM)", "false"),
    ("CC1=C(CC(=O)O)c2cc(F)ccc2/C1=C\\c1ccc(S(C)(=O)=O)cc1 [exisulind] (10 µM)", "false"),
    ("CNC(=O)c1cc(Oc2ccc(NC(=O)Nc3ccc(Cl)c(C(F)(F)F)c3)cc2)ccn1 [sorafenib] (0.833333 µM)", "false"),
    ("C[C@@H](N)[C@H]1CC[C@H](C(=O)Nc2ccncc2)CC1 (10 µM)", "false"),
    ("COc1cc2c(cc1OC)CN(C(=O)[C@@H](NCc1ccncc1)C(C)(C)C)CC2 (10 µM)", "false"),
    ("O=C1C2C=Nc3ccccc3C2=NN1c1ccc(Cl)cc1 (configuration not stated) (10 µM)", "false"),
    ("Nc1ncnc2nc(-c3ccc(N4CCOCC4)nc3)cc(-c3cccc(Br)c3)c12 (10 µM)", "false"),
    ("C[C@@H]1CC[C@H]2[C@@H](C)C(=O)O[C@@H]3O[C@@]4(C)CC[C@@H]1[C@]32OO4 [artemisinin] (10 µM)", "false"),
]
